In this section we review reported normalized growth values for a set of compounds.
- Experimental details: chemical genetic growth profiling, strain panel (AID 1159580);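 note: tested at 20 µM; growth read once vehicle control cultures reached saturation at 30 °C; 1 = growth at the plate median or of vehicle wells; lower values mean less growth of the strain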
- Condition context: S. cerevisiae deletion strains, growth OD, locus YPL209C, strain IPL1, hits give low values
In all, about 5,500 compounds went through this assay and about 2,000 (36%) were called active. About 18% were inconclusive and are not listed. This is one part of the list.
Answer with a bare number; do not write a unit.

CCCC1c2ccsc2CCN1C(=S)Nc1ccc(Cl)cc1Cl (stereo not given) : 0.974
O=C(CO/N=C\c1ccc(Cl)cc1Cl)NNC(=S)Nc1cc(Cl)ccc1Cl : 1
COc1cc(C(=O)Oc2c(Cl)cc(Cl)cc2C=Nc2cccc(C(F)(F)F)c2)cc(OC)c1OC : 0.976
COc1cc(N=Cc2cc(Cl)cc(Cl)c2OS(=O)(=O)c2ccc(C)cc2)c(OC)cc1Cl : 0.947
COc1cc(C(=O)Oc2c(Cl)cc(Cl)cc2C=Nc2ccc([N+](=O)[O-])cc2C#N)cc(OC)c1OC : 0.976

Alright, here's another compound for you.
stdin: Would you mind telling me what normalized growth value was observed for "CCOC(=O)c1c(N=Cc2cc(Br)c(Br)cc2O)sc2c1CCCC2" ?
stdout: 0.975
